System: LXRa homodimer (NR concentration 270 nM)
Assay: PBM binding z-score (relative to random genomic background probes); higher = stronger binding; sequences stand for … in GC…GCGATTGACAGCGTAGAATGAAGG
I'd appreciate it if you could label each record using PBM binding z-score and these ranges: low: < -0.2; moderate: ≥ -0.2 and < 5; high: ≥ 5

For CGTCCAAGGTCATACGAGGTCAGTGAAGACAGAT , which PBM binding z-score bin applies?
high

One more sequence: GCTGCTAGGTCAGGTTGGTCGGCTAACGGGTACG
low

One more sequence: ATCGAAAGGTGGACGAGGTGAGTATACACCGTTT
low

One more sequence: CCTCGGAGGTCAGAAGGTCAGAGCTGTCCGCTTT
moderate

One more sequence: CGAACTAGGTCACCAGGACAGTGACGAGGTTGGA
low

One more sequence: CGAACTAGGTCACCAGTACAGTGAAGAGGTTGGA
moderate

One more sequence: GCTGCTAGGTCAACTGATGGTCAGCTAAAGCTCG
moderate

One more sequence: ATATGTAGGTCATCGGGTCATTCAGTTTGCGCAT
moderate

One more sequence: CCTAGCAGGCCAGGGTCACCCAAGCATTTCGCTT
low

One more sequence: TTACCAAGGTGACCTGAGGTCGTTGATCCAACTC
moderate

One more sequence: CCTACTGGGCCATTGAGAGGTCATTGATCATATG
high

One more sequence: CAAACTAGGTCAAAGGTCAAAGTTGAGCCAACCA
high

Data provenance: the supplement of paper PMC6555819
